test: Thermo Scientific Acclaim RSLC 120 C18, 100 × 2.1 mm, 2.2 µm, 30 °C; A: 90% water + 10% methanol + 0.01% formic acid + 5 mM ammonium formate; B: methanol + 0.01% formic acid + 5 mM ammonium formate; gradient (min/%B) 0.1/1 3/39 14/99.9 16/99.9; details: stereoisomer not certain
Decide using LC retention time: a value greater than or equal to 5 min is 1, a smaller one is -1.

Worked cases, answers included:
> print(dat)
                                   compound  class.label
1                     Cc1ccsc1C=CC1=NCCCN1C           -1
2  CCN1CC2(COC)C(O)CC(OC)C34C5CC6(O)C(OC)C(O)C(OC(C)=O)(C5C6OC(=O)c5ccccc5)C(C(OC)C23)C14 (stereo unspecified)            1
3  OCCN(CCO)c1nc(N2CCCCC2)c2nc(N(CCO)CCO)nc(N3CCCCC3)c2n1            1
4    CCCCCn1cc(C(=O)Cc2cccc(OC)c2)c2ccccc21            1
5          CCN(CC)c1nc(C)cc(OP(=S)(OC)OC)n1            1
6   CC(N)C(=O)c1ccccc1 (stereo unspecified)           -1
7               Cc1c(N)c(=O)n(-c2ccccc2)n1C           -1
8  C=CC=CCC1=C(C)C(OC(=O)C2C(C=C(C)C(=O)OC)C2(C)C)CC1=O (stereo unspecified)            1

# bool: LC retention time of CCCNC1CCc2nc(N)sc2C1 (stereo unspecified) >= 5 min
-1

# bool: LC retention time of CCCS(=O)(=O)c1ccc2nc(NC(=O)OC)[nH]c2c1 >= 5 min
1

* * *

Measured LC retention time, listed per entry.
assay: Thermo Scientific Acclaim RSLC 120 C18, 100 × 2.1 mm, 2.2 µm, 30 °C; A: 90% water + 10% methanol + 0.01% formic acid + 5 mM ammonium formate; B: methanol + 0.01% formic acid + 5 mM ammonium formate; gradient (min/%B) 0.1/1 3/39 14/99.9 16/99.9; settings: stereoisomer not certain
Give your result in min as a bare value.

> print(dat)
                                   compound  result.number
1               CCOP(=S)(OCC)OP(=S)(OCC)OCC           10.8
2  Oc1ccc2c3c1OC1C(O)CCC4(O)C(C2)N(CC2CCC2)CCC314 (configuration not stated)           4.17
3                      CCN(CC)C(=O)c1cccnc1           4.64
4  Cc1ccccc1C(OCCN(C)C)c1ccccc1 (configuration not stated)           7.44
5  CN1Cc2c(N)cccc2C(c2ccccc2)C1 (configuration not stated)           5.42
6  CCCc1nn(C)c2c(=S)nc(-c3cc(S(=O)(=O)N4CC(C)NC(C)C4)ccc3OCC)[nH]c12 (configuration not stated)           9.91

Query LC retention time for CCCOC(=O)NCCCN(C)C
3.5

Query LC retention time for CN(C)CCOC(=O)C(c1ccccc1)C1(O)CCCC1 (configuration not stated)
6.16

Query LC retention time for CCOS(=O)(=O)O
1.58

Query LC retention time for CN=C(NC)NCc1ccccc1
3.97

Query LC retention time for CCN(CC)CCNC(=O)c1cc(S(C)(=O)=O)ccc1OC
3.41

Query LC retention time for Cc1nnc(SCC2=C(C(=O)O)N3C(=O)C(NC(=O)Cn4cnnn4)C3SC2)s1 (configuration not stated)
4.16

* * *

experiment: Thermo Scientific Acclaim RSLC 120 C18, 100 × 2.1 mm, 2.2 µm, 30 °C; A: 90% water + 10% methanol + 0.01% formic acid + 5 mM ammonium formate; B: methanol + 0.01% formic acid + 5 mM ammonium formate; gradient (min/%B) 0.1/1 3/39 14/99.9 16/99.9; details: stereoisomer not certain
OBSERVED PROPERTY: LC retention time

Sample answers from the record:
> print(dat)
                                   compound  observed.property    result
1  CC1CC2C(C(O)CC3(C)C2CCC3(O)C(=O)CO)C2(C)C=CC(=O)C=C12 (configuration not stated)  LC retention time  8.75 min
2  CN1CCCN=C1COC(=O)C(O)(c1ccccc1)C1CCCCC1 (configuration not stated)  LC retention time  7.98 min
3  CN1CCCCC1Cn1cc(C(=O)C23CC4CC(CC(C4)C2)C3)c2ccccc21 (configuration not stated)  LC retention time  9.94 min
4  CNC(=O)Oc1cc(C)c(S(C)=O)c(C)c1 (configuration not stated)  LC retention time  4.86 min
5       Cc1cc(C)nc(NS(=O)(=O)c2ccc(N)cc2)n1  LC retention time  4.31 min
6                 CNC(=O)Oc1cc(C)c(C)c(C)c1  LC retention time   8.1 min

Query LC retention time for CCOP(=S)(OCC)SCSC(C)(C)C
12.2 min

Query LC retention time for CNC(C)C(=O)c1ccc(OC)cc1 (configuration not stated)
4.16 min

Query LC retention time for CNC(C)Cc1ccc2c(c1)OCO2 (configuration not stated)
4.18 min

Query LC retention time for CCc1cccc2c3c([nH]c12)C(CC)(CC(=O)O)OCC3 (configuration not stated)
10.6 min

Query LC retention time for CCCc1nn(C)c2c(=O)[nH]c(-c3cc(S(=O)(=O)N4CCN(C5CCCC5)CC4)ccc3OCC)nc12
9.01 min

Query LC retention time for CC(C(=O)c1ccc2c(c1)OCO2)N1CCCC1 (configuration not stated)
4.13 min

Query LC retention time for CC1(C)SC2C(NC(=O)C(N)c3ccccc3)C(=O)N2C1C(=O)O (configuration not stated)
4.21 min

Query LC retention time for Cc1cccc(OCC(O)CNC(C)C)c1 (configuration not stated)
5.29 min

Query LC retention time for CC=CC(=O)N(CC)c1ccccc1C
9.24 min

Query LC retention time for CCS(=O)CCSP(=O)(OC)OC (configuration not stated)
3.98 min

Query LC retention time for Cc1cccc2sc3nncn3c12
5.93 min

Query LC retention time for Cc1cccc(N(C)C(=S)Oc2ccc3ccccc3c2)c1
12.2 min

Query LC retention time for COc1cc(SC(C)C)c(OC)cc1CCN
6.69 min

Query LC retention time for CCN(CC)CCOCCOC(=O)C1(c2ccccc2)CCCC1
7.87 min

* * *

assay: Thermo Scientific Acclaim RSLC 120 C18, 100 × 2.1 mm, 2.2 µm, 30 °C; A: 90% water + 10% methanol + 0.01% formic acid + 5 mM ammonium formate; B: methanol + 0.01% formic acid + 5 mM ammonium formate; gradient (min/%B) 0.1/1 3/39 14/99.9 16/99.9; conditions: stereoisomer not certain
OBSERVED PROPERTY: LC retention time (min)
Give your result in min as a bare value.

> print(dat)
                              compound  result.number
1  O=C1CN=C(c2ccccc2)c2c(sc3c2CCCC3)N1           9.49

Query LC retention time for OCCN1CCN(CCCN2c3ccccc3C=Cc3ccccc32)CC1
7.83

Query LC retention time for C=CCN(CC=C)CCc1c[nH]c2ccc(OC)cc12
4.89

Query LC retention time for CCCCN1CC(=O)N2C(Cc3c([nH]c4ccccc34)C2c2ccc3c(c2)OCO3)C1=O (stereo unspecified)
10.2

Query LC retention time for CNCCC(c1ccccc1)c1ccccn1 (stereo unspecified)
5.79

Query LC retention time for Cc1ccc(N=Nc2c(O)ccc3ccccc23)c(C)c1
14.9

* * *

test: Thermo Scientific Acclaim RSLC 120 C18, 100 × 2.1 mm, 2.2 µm, 30 °C; A: 90% water + 10% methanol + 0.01% formic acid + 5 mM ammonium formate; B: methanol + 0.01% formic acid + 5 mM ammonium formate; gradient (min/%B) 0.1/1 3/39 14/99.9 16/99.9; conditions: stereoisomer not certain
Our labelling divides records by LC retention time into ranges: b0 (below 4 min), b1 (4 min to below 7 min), b2 (7 min or more)

Worked cases, answers included:
> print(dat)
                                   molecule  class.label
1  CC(Cn1cnc2c(N)ncnc21)OCP(=O)(O)O (stereo unspecified)           b0
2  C=C1CC23CC1(O)CCC2C12C=CC(O)C(C)(C(=O)O1)C2C3C(=O)O (stereo unspecified)           b1
3  COc1ccc(CC(C)N)c(OC)c1OC (stereo unspecified)           b1
4     Cc1ccc2c(-c3ccccc3)nc(=O)n(C(C)C)c2c1           b2
5  CC(C)C(O)(C(=O)OCC1=CCN2CCC(O)C12)C(C)O (stereo unspecified)           b0

Into which category would you place COc1cc(OC)nc(NC(=O)NS(=O)(=O)c2ncccc2C(=O)N(C)C)n1 ?
b1

Into which category would you place COc1cc(NS(=O)(=O)c2ccc(NC(C)=O)cc2)nc(OC)n1 ?
b1

Into which category would you place CN1CCC23c4c5ccc(O)c4OC2CCCC3C1C5 (stereo unspecified) ?
b0

Into which category would you place CCCCCn1cc(C(=O)Nc2cccc3ccccc23)c2ccccc21 ?
b2

Into which category would you place NC(=O)C1CCNCC1 ?
b0
